System: HCC1937
Assay: normalised response (% of control), CellTox Green; higher = less cell death (100 = DMSO, 0 = benzethonium chloride kill control)
Details: incubation time: 72 h
Measured normalised response, listed per entry for reference.
Numbers only; they are read as %.

compound: COc1nc(N)nc2c1ncn2[C@@H]1O[C@H](CO)[C@@H](O)[C@@H]1O [Nelarabine] (100 nM)
readout_units: %
data_value: 88.7

Observed normalised response, HCC1937, O=C(NC[C@H](O)CO)c1ccncc1Nc1ccc(I)cc1F [Pimasertib] (100 nM) : 101

The recorded normalised response with HCC1937 for CNC(=O)c1cc(Oc2ccc(NC(=O)Nc3ccc(Cl)c(C(F)(F)F)c3)cc2)ccn1 [Sorafenib] (1000 nM) was 99.2

HCC1937 normalised response of O=C(CCBr)N1CCN(C(=O)CCBr)CC1 [Pipobroman] (10000 nM) is 105
